Target: NAD-dependent protein deacetylase sirtuin-1 (Homo sapiens) (UniProt Q96EB6)
Sequence (whole entry): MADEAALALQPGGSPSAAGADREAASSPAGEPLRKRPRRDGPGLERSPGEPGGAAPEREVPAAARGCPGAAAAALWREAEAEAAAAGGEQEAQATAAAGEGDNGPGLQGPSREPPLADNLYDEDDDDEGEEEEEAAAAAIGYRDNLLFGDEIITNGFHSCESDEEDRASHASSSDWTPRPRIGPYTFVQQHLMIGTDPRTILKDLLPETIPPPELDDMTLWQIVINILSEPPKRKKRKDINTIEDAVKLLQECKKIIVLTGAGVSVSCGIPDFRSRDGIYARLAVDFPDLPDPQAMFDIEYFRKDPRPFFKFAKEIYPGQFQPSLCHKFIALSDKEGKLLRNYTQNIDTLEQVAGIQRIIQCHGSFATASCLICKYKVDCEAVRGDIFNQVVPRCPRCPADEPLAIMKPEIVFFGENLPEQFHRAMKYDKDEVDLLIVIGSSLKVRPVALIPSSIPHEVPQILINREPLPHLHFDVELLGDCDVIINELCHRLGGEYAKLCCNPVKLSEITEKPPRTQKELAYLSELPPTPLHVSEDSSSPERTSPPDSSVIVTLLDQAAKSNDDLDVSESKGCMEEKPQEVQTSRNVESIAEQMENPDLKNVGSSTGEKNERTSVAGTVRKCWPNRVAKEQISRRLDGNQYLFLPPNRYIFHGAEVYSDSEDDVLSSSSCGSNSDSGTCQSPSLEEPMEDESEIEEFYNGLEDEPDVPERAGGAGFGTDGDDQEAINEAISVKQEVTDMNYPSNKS
Assay: Inhibition of human recombinant SIRT1 using KI-177 as substrate at 5 uM after 30 mins by fluorescence assay
Activity calls are given as the source filed them. The calls are words filed in the database; no cut-off is given here.
Classes used: 1 (yes) (active), 0 (no) (inactive)

1. O=C(NCCO)/C(Cc1c[nH]c2ccc(Br)cc12)=N/O; 0 (no)
2. O=C(NCCSSCCNC(=O)/C(Cc1c[nH]c2ccc(Br)cc12)=N/O)/C(Cc1c[nH]c2ccc(Br)cc12)=N/O; 1 (yes)
3. CSCCNC(=O)/C(Cc1c[nH]c2ccc(Br)cc12)=N/O; 0 (no)
4. Cn1cc(C/C(=N\O)C(=O)NCCSSCCNC(=O)/C(Cc2cn(C)c3ccc(Br)cc23)=N/O)c2cc(Br)ccc21; 0 (no)
5. COCCNC(=O)/C(Cc1c[nH]c2ccc(Br)cc12)=N/O; 0 (no)

###

target: Histone deacetylase (Homo sapiens) (UniProt Q13547+O15379+Q9UBN7+Q92769+Q9UQL6+Q8WUI4+Q9BY41+Q96DB2+P56524+Q9UKV0+Q969S8); experiment: Inhibition of HDAC in human U937 cells assessed as induction of histone H3 acetylation at 5 uM after 30 hrs by cytofluorimetric analysis; assay type: cell-based; settings: U-937
Activity calls are given as the source filed them. No cut-off for these calls is given here.
Classes used: active, inactive

1) COc1ccc2[nH]cc(C/C(=N\O)C(=O)NCCSSCCNC(=O)/C(Cc3c[nH]c4ccc(OC)cc34)=N/O)c2c1; active
2) O=C(NCCSSCCNC(=O)/C(Cc1c[nH]c2ccc(OCc3ccccc3)cc12)=N/O)/C(Cc1c[nH]c2ccc(OCc3ccccc3)cc12)=N/O; active
3) O=C(NCCSSCCNC(=O)/C(Cc1c[nH]c2ccc(Br)cc12)=N/O)/C(Cc1c[nH]c2ccc(Br)cc12)=N/O; active
4) O=C(CCc1c[nH]c2ccc(Br)cc12)NCCSSCCNC(=O)CCc1c[nH]c2ccc(Br)cc12; active
5) O=C(NCCSSCCNC(=O)/C(Cc1c[nH]c2cc(Br)ccc12)=N/O)/C(Cc1c[nH]c2cc(Br)ccc12)=N/O; active
6) O=C(NCCSSCCNC(=O)/C(Cc1c[nH]c2ccccc12)=N/O)/C(Cc1c[nH]c2ccccc12)=N/O; active
7) O=C(NCCSSCCNC(=O)/C(Cc1c[nH]c2ccc(I)cc12)=N/O)/C(Cc1c[nH]c2ccc(I)cc12)=N/O; active
8) CSCCNC(=O)/C(Cc1c[nH]c2ccc(Br)cc12)=N/O; active
9) O=C(NCCSSCCNC(=O)/C(Cc1c[nH]c2c(Br)cccc12)=N/O)/C(Cc1c[nH]c2c(Br)cccc12)=N/O; active
10) O=C(NCCSSCCNC(=O)/C(Cc1c[nH]c2ccc(F)cc12)=N/O)/C(Cc1c[nH]c2ccc(F)cc12)=N/O; inactive
11) O=C(NCCSSCCNC(=O)/C(Cc1c[nH]c2ccc(Cl)cc12)=N/O)/C(Cc1c[nH]c2ccc(Cl)cc12)=N/O; active
12) O=C(NCCCCSSCCCCNC(=O)/C(Cc1c[nH]c2ccc(Br)cc12)=N/O)/C(Cc1c[nH]c2ccc(Br)cc12)=N/O; inactive
13) Cn1cc(C/C(=N\O)C(=O)NCCSSCCNC(=O)/C(Cc2cn(C)c3ccc(Br)cc23)=N/O)c2cc(Br)ccc21; active
